# Test system: MDA-N
# assay: NCI tumour cell line growth inhibition, 48 h
Entries and their TGI values follow.
valueKind: TGI

INSERT INTO results (molecule, testedon, valuekind, reportedmeasurement) VALUES
  ('CCN1C=C/C(=C\C=C/c2cc[n+](CC)c3ccccc23)c2ccccc21', 'MDA-N', 'TGI', '19.3 µM'),
  ('CCOC(=O)C1C(c2ccc(OC)cc2)c2c([nH]n(-c3ccccc3)c2=O)CC1(O)OCC (centres undefined)', 'MDA-N', 'TGI', '> 100 µM'),
  ('COc1cc(OC)cc(OCc2ccc3nc(-c4ccccc4)c(Cl)nc3c2)c1', 'MDA-N', 'TGI', '> 100 µM'),
  ('CCC[CH2][Sn]([CH2]CCC)([O]C(=O)c1cc(F)ccc1F)[O][Sn]([CH2]CCC)([CH2]CCC)[O]C(=O)c1cc(F)ccc1F', 'MDA-N', 'TGI', '1.46 µM'),
  ('CC1=NOC2(C1)C(=O)Nc1ccccc12 (centres undefined)', 'MDA-N', 'TGI', '> 100 µM'),
  ('CC(=O)N1CN2C(=O)CCC2c2ccccc21 (centres undefined)', 'MDA-N', 'TGI', '> 100 µM'),
  ('CC(=O)Nc1ccc(N=C2C(c3ccccc3)=C(SC3=C(c4ccccc4)C(=Nc4ccc(NC(C)=O)cc4)c4ccccc43)c3ccccc32)cc1', 'MDA-N', 'TGI', '> 100 µM'),
  ('Cc1ccc(Cc2n[nH]c(=O)n2/N=C\CC/C=N\n2c(Cc3ccc(C)cc3)n[nH]c2=O)cc1', 'MDA-N', 'TGI', '> 100 µM'),
  ('N/C(=N\S(=O)(=O)c1cccc2nsnc12)Nc1ccc(Cl)cc1', 'MDA-N', 'TGI', '> 100 µM');

---

Entries and their TGI values follow.
# Test system: ACHN renal
# assay: NCI tumour cell line growth inhibition, 48 h
valueKind: TGI

INSERT INTO assay_data (smilesstructure, reportedmeasurement) VALUES
  ('O=S(=O)(N/N=C/c1ccc(Cl)c(Cl)c1)c1ccccc1', '> 100 µM'),
  ('c1ccc2c(c1)sc1c3cnccc3ccc21', '> 100 µM'),
  ('CC(=O)NNc1nc(C)c(C(/C=C/c2ccc([N+](=O)[O-])cc2)=N/N)s1', '> 100 µM');

---

# System: NCI/ADR-RES ovarian
# assay: NCI tumour cell line growth inhibition, 48 h
Entries and their TGI values follow.
valueKind: TGI

INSERT INTO assay_data (molecule, valuekind, reportedmeasurement) VALUES
  ('COC(=O)CC1C(COC(C)=O)OC(n2cc(C)c(=O)[nH]c2=O)C1OC(C)=O (centres undefined)', 'TGI', '> 100 µM'),
  ('Cc1ccc(O)c(C(c2ccc([N+](=O)[O-])cc2)c2cc(C)ccc2O)c1', 'TGI', '28.7 µM'),
  ('c1ccc(C2CC(c3cccc(Nc4ccncc4)c3)=NN2c2ccccc2)cc1 (centres undefined)', 'TGI', '3.54 µM'),
  ('CC(C)CC[C@H](O)[C@@H](C)[C@H]1[C@@H](OC2OC(C)C(O)C(O)C2O)C[C@H]2[C@@H]3CC=C4C[C@@H](O)CC[C@]4(C)[C@H]3[C@@H](O)C[C@]12C (some centres undefined)', 'TGI', '> 100 µM'),
  ('Cc1ncc([N+](=O)[O-])n1CCN(C)C(=O)CCCn1ccnc1[N+](=O)[O-]', 'TGI', '> 100 µM'),
  ('COc1ccc2c(c1O)C13CCN(C)C(C2)C1CCC1(C3)OCCO1 (centres undefined)', 'TGI', '> 100 µM'),
  ('O=C(C=P(c1ccccc1)(c1ccccc1)c1ccccc1)c1cccc(-c2cccc([N+](=O)[O-])c2)c1', 'TGI', '> 100 µM'),
  ('Cn1cc(C2=C(c3cn(CCO)c4ccccc34)C(=O)NC2=O)c2ccccc21', 'TGI', '> 22 µM'),
  ('CCCCCCNC(=O)c1cc(CCc2cc(O)ccc2O)ccc1O', 'TGI', '> 67.7 µM');

---

# Tested on: HCC-2998 colon
# assay: NCI tumour cell line growth inhibition, 48 h
valueKind: TGI (µM)

INSERT INTO results (compound, testedon, valuekind, qualifiersymbol, reportedmeasurement) VALUES
  ('CCOc1ccc(Nc2nc3c(s2)C(=O)c2ccccc2C3=O)cc1', 'HCC-2998 colon', 'TGI', '=', 33.5),
  ('CC1(C)C2CCC(CN)(C2)C1O (configuration not stated)', 'HCC-2998 colon', 'TGI', '>', 100),
  ('CN(CCCCCl)P(=O)(OCc1ccc([N+](=O)[O-])o1)OCC1OC(n2ccc(N)nc2=O)C(F)(F)C1O (configuration not stated)', 'HCC-2998 colon', 'TGI', '=', 49.1),
  ('CCCCCCc1cc2cc(-c3nc4ccccc4[nH]3)c(=Nc3ccccc3C)oc2cc1O', 'HCC-2998 colon', 'TGI', '>', 77.3),
  ('CC(C)(C)n1c(=O)[nH]n(C2NN=Cc3cccc4cccc2c34)c1=O (configuration not stated)', 'HCC-2998 colon', 'TGI', '>', 100),
  ('CC1(Cl)CC2OC3(Br)C=CC(C)(O)C2(CC1Br)C3(C)C (configuration not stated)', 'HCC-2998 colon', 'TGI', '>', 100),
  ('COC(=O)[C@H](Cc1ccccc1)NC(=O)N1CCCN(C(=O)N[C@@H](Cc2ccccc2)C(=O)OC)CCCN(C(=O)N[C@@H](Cc2ccccc2)C(=O)OC)CCC1', 'HCC-2998 colon', 'TGI', '=', 38.6),
  ('O=Cc1c2ccccc2n2ccc3c4ccccc4[nH]c3c12', 'HCC-2998 colon', 'TGI', '>', 10),
  ('COc1ccc(C2CC(c3cccc(Nc4ccncc4)c3)=NN2c2ccc(Cl)cc2)cc1 (configuration not stated)', 'HCC-2998 colon', 'TGI', '=', 3.22),
  ('CO/C=C(/C(=O)OC)c1ccccc1[C@@H]1CC1c1cccc(F)c1 (some centres not stated)', 'HCC-2998 colon', 'TGI', '=', 94.8),
  ('Cc1ccc(NC(=O)Cc2ccc(/C=C/C(=O)c3ncc[nH]3)cc2)cc1', 'HCC-2998 colon', 'TGI', '>', 25),
  ('CC(C)CC[C@H](O)[C@@H](C)[C@H]1[C@@H](OC2OC(C)C(O)C(O)C2O)C[C@H]2[C@@H]3CC=C4C[C@@H](O)CC[C@]4(C)[C@H]3[C@@H](O)C[C@]12C (some centres not stated)', 'HCC-2998 colon', 'TGI', '>', 100),
  ('Nc1cc(C(=O)O)[nH]c(=O)n1', 'HCC-2998 colon', 'TGI', '>', 100),
  ('O=C(C[C@H](NC(=O)OCc1ccccc1)C(=O)NC1Cc2ccccc2OC1=O)OCc1ccccc1 (some centres not stated)', 'HCC-2998 colon', 'TGI', '=', 66.5),
  ('CN(C)c1nc2oc(-c3ccccc3)c(-c3ccccc3)c2c2nncn12', 'HCC-2998 colon', 'TGI', '>', 100),
  ('O=C1CS(=O)(=O)C(c2cccc(Oc3ccccc3)c2)N1c1cccc(Cl)c1 (configuration not stated)', 'HCC-2998 colon', 'TGI', '=', 15.7),
  ('O=C(CC(=O)Nc1cccc(Cl)c1)NNCC(=O)Nc1nnc(-c2ccccc2)s1', 'HCC-2998 colon', 'TGI', '>', 100),
  ('CCCCCCNC(=O)c1cc(CCc2cc(O)ccc2O)ccc1O', 'HCC-2998 colon', 'TGI', '=', 9.68),
  ('CCCN1CC=C(c2cc(C(=O)OCC)[nH]c2-c2cc(C)no2)C1=O', 'HCC-2998 colon', 'TGI', '>', 100),
  ('c1ccc2c(c1)Nc1ccccc1[P+]21c2ccccc2Nc2ccccc21', 'HCC-2998 colon', 'TGI', '=', 2.44),
  ('CCN1C=C/C(=C\C=C/c2cc[n+](CC)c3ccccc23)c2ccccc21', 'HCC-2998 colon', 'TGI', '=', 19),
  ('Fc1ccc(-c2nn3c(-c4ccc(F)c(Cl)c4)nnc3s2)cc1', 'HCC-2998 colon', 'TGI', '>', 50),
  ('Cc1cc2cc3cc(C)c(N(C)C)cc3[n+](C)c2cc1N(C)C', 'HCC-2998 colon', 'TGI', '=', 16.7),
  ('C#CCN(Cc1nc2cc(C(F)(F)F)ccc2nc1-c1ccccc1)c1ccc(OC(F)(F)F)cc1', 'HCC-2998 colon', 'TGI', '=', 91.9),
  ('CC(C)c1nc2cc(C(F)(F)F)ccc2[nH]c1=O', 'HCC-2998 colon', 'TGI', '>', 100),
  ('CN(C)Cc1cc(N=Nc2cccc(Cl)c2)ccc1O', 'HCC-2998 colon', 'TGI', '=', 27.9),
  ('O=C(CCC(=O)Nc1cccc(Cl)c1)CC(=O)c1ccc(F)cc1', 'HCC-2998 colon', 'TGI', '>', 100),
  ('COc1cc(OC)cc(OCc2ccc3nc(-c4ccccc4)c(Cl)nc3c2)c1', 'HCC-2998 colon', 'TGI', '>', 100),
  ('CC(C)(C)OC(=O)CC(NC(=O)OC(C)(C)C)C(=O)N[C@@H]1CCCC[C@H]1C(=O)OCc1ccccc1 (some centres not stated)', 'HCC-2998 colon', 'TGI', '=', 64.7),
  ('CCCCCc1nc2c(c3c1CCCC3)CCCC2', 'HCC-2998 colon', 'TGI', '=', 29.5),
  ('COc1ccc(N(CN2C(=O)CCC2C(=O)O)C(C)=O)cc1 (configuration not stated)', 'HCC-2998 colon', 'TGI', '>', 100),
  ('CN(C)CCN(C)CC1COC(C)(C)O1 (configuration not stated)', 'HCC-2998 colon', 'TGI', '>', 100),
  ('CCOC(=O)C1C(c2ccc(OC)cc2)c2c([nH]n(-c3ccccc3)c2=O)CC1(O)OCC (configuration not stated)', 'HCC-2998 colon', 'TGI', '>', 100),
  ('COc1cc(/C=C2/SC(c3ccccc3)N(c3cccc(Cl)c3)C2=O)cc(OC)c1OC (configuration not stated)', 'HCC-2998 colon', 'TGI', '>', 100),
  ('Nc1nc2sc3ccccc3c(=O)n2n1', 'HCC-2998 colon', 'TGI', '>', 100),
  ('CCOc1ccc(-c2cnnn2-c2nonc2-n2cccc2)cc1', 'HCC-2998 colon', 'TGI', '>', 33),
  ('O=c1c2ccccc2c(Br)c(Br)c2ccccc12', 'HCC-2998 colon', 'TGI', '=', 35.8),
  ('CC1(C)/C(=N\O)C2(C#N)CCC1C2 (configuration not stated)', 'HCC-2998 colon', 'TGI', '>', 100),
  ('C#CCn1ncc2c(SC)ncnc21', 'HCC-2998 colon', 'TGI', '>', 100),
  ('n1onc2c1NC1Nc3nonc3NC1N2 (configuration not stated)', 'HCC-2998 colon', 'TGI', '>', 100),
  ('COC(=O)C1=C(C)NC(C)=C(C(=O)OC)C1/C=C(\Cl)c1ccc(Cl)c(Cl)c1', 'HCC-2998 colon', 'TGI', '=', 31.1),
  ('Nc1ccccc1-c1ccc([N+](=O)[O-])cc1', 'HCC-2998 colon', 'TGI', '=', 8.54);
